test system: IGROV1 ovarian; assay: NCI-60 one-dose screen, 48 h; conditions: 10 µM unless noted
This is part of a sample that, as a whole, favours compounds with a hit. Of some 83,000 tested, about 20% had one in any assay. The source made the active and inactive calls. How the source made its calls: active means growth percent below 10; inactive means the rest.
Please reply with one of these outcomes: class 1 for active, class 0 for inactive

Reference set, count: 3
{"Compound": "Clc1ccc2oc3c(NCCCN4CCOCC4)c4ccccc4nc3c2c1", "Experimental system": "IGROV1 ovarian", "Label": "class 0"}
{"Compound": "COc1cc(OC)c(C2C(Cl)C(=O)N2Nc2ncnc3ccccc23)cc1OC (stereo not drawn)", "Experimental system": "IGROV1 ovarian", "Label": "class 0"}
{"Compound": "Nc1ncc(-c2ccc3ncnc(N4CCc5cc(F)c(Cl)cc54)c3c2)cc1CO", "Experimental system": "IGROV1 ovarian", "Label": "class 1"}

Entry COc1cc(/C=C/C(=O)c2ccccc2)ccc1Oc1nc(NCCO)nc(N2CCOCC2)n1 : call = ?
class 0

Entry Cc1ccc(C(=O)Nc2cccc(C(F)(F)F)c2)cc1Nc1nc(-c2cnccn2)nc2c1cnn2C : call = ?
class 0

Entry CS(=O)(=O)c1ccc(-c2nc3ccccn3c2/C=N/Nc2nc(-c3ccc(Br)cc3)cs2)cc1 : call = ?
class 0

Entry Fc1ccc(-c2cc3nc(C(Cl)Cl)nc(-c4ccc(Cl)cc4)n3n2)cc1 : call = ?
class 0

* * *

system: RXF 393 renal; assay: NCI-60 one-dose screen, 48 h; settings: 10 µM unless noted
This is part of a sample that, as a whole, favours compounds with a hit. Of some 83,000 tested, about 20% had one in any assay. Calls of active or inactive are those of the source. The calls were made as follows: active = growth percent below 10; inactive = the rest.
Please reply with one of these outcomes: true (active), false (inactive)

{"Molecule": "O=C(c1ccc(Cl)cc1)C1[C@H](c2ccc(Cl)cc2)[C@@H](c2ccccc2)NC12C(=O)Nc1ccc(Br)cc12 (some centres not stated)", "Label": "true"}
{"Molecule": "OC1CCN(CCCOc2c3ccccc3nc3c2oc2ccc(Cl)cc23)CC1", "Label": "true"}

Entry COc1ccc([C@@H]2c3[nH]c4ccccc4c3CC3C(=O)N(C4CCN(Cc5c(F)cccc5F)CC4)CC(=O)N32)c(OC)c1 (some centres not stated) : call = ?
false

* * *

system: SNB-75 CNS; experiment: NCI-60 one-dose screen, 48 h (100 = growth as untreated, 0 = no growth, -100 = all killed); details: 10 µM unless noted
Compounds without any hit were thinned out: in the full panel of roughly 83,000, 20% have a hit.
Measured quantity: growth (%)
Field format: number, assumed %, no unit text.

Below are worked cases with known answers.
{"Molecule": "CCN1C(=S)N(CC)C2C1N=C(SC)N2/N=C/C=C/c1ccccc1[N+](=O)[O-] (stereo not drawn)", "Experimental system": "SNB-75 CNS", "growth [%]": 82.2}
{"Molecule": "OC1CCN(CCCOc2c3ccc(Cl)cc3nc3c2oc2ccccc23)CC1", "Experimental system": "SNB-75 CNS", "growth [%]": -19.1}
{"Molecule": "Clc1ccc2c(NCCCn3ccnc3)c3oc4ccc(Cl)cc4c3nc2c1", "Experimental system": "SNB-75 CNS", "growth [%]": 70.2}
{"Molecule": "COc1ccccc1C(=O)CSc1nc(Nc2ccc(S(N)(=O)=O)cc2)c2ccccc2n1", "Experimental system": "SNB-75 CNS", "growth [%]": 106}
{"Molecule": "CN1CCN(Cc2ccc(NC(=O)c3cncc(C#Cc4cnc5ccc(N6CCSCC6)nn45)c3)cc2C(F)(F)F)CC1", "Experimental system": "SNB-75 CNS", "growth [%]": -67.4}

response.value for COc1ccc(/C=C2\SC(=Nc3cc(C)on3)NC2=O)cc1 (field: growth) = 97

response.value for CC(=O)Oc1ccccc1C(=O)Nc1cc(C(C)C)ccc1C (field: growth) = 26.1

response.value for CS(=O)(=O)Nc1ccc(-c2nn(-c3ccc(S(C)(=O)=O)cc3)cc2/C=C/C(=O)c2ccc(NC(=O)CO[N+](=O)[O-])cc2)cc1 (field: growth) = 108

response.value for COC(=O)C(C)NS(=O)(=O)/N=C1\NC(=O)NC1=C(Cl)Cl (stereo not drawn) (field: growth) = 98.8

response.value for COc1ccc2[nH]cc(-c3cc(N)n4nc(-c5c[nH]c6ccc(OC)cc56)cc4n3)c2c1 (field: growth) = 106

response.value for Clc1ccc2oc3c(OCCCn4ccnc4)c4ccccc4nc3c2c1 (field: growth) = 68.5

response.value for N[C@@H](Cc1cn(-c2ccnc3ccccc23)nn1)C(=O)O (field: growth) = 98.5

response.value for COC(=O)c1ccc(NC(=S)N2CCc3ccc([N+](=O)[O-])cc3C2)cc1O (field: growth) = 112
